Reference for the values: paper PMC11510177

Target: tyrosinase (Agaricus bisporus, UniProt C7FF04)
Construct: purchased Sigma-Aldrich
Sequence (C7FF04 1-392 limits assumed): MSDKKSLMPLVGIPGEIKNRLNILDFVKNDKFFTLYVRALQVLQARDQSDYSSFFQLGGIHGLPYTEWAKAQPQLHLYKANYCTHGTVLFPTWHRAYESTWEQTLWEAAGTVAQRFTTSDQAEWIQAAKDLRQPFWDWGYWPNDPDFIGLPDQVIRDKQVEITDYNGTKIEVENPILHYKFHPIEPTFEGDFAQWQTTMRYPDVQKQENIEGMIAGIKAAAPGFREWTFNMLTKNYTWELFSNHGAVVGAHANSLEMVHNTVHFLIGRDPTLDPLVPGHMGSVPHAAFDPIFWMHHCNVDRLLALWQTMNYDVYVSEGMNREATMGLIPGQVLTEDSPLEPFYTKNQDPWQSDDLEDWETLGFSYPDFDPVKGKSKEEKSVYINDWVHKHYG
Experiment: Tyrosinase inhibition assay
Format: biochemical
Conditions: read-out: IC50 against tyrosinase
Recorded IC50 by entry

1. C/C(=C\COC(=O)c1ccccc1)CCC[C@@H](C)CCC[C@@H](C)CCCC(C)C (stereo in doubt) [Compound 1a, Phytyl benzoate]: 34.7 µM

Ask: # returns recorded IC50 (system: tyrosinase (Agaricus bisporus, UniProt C7FF04)) for C/C(=C\COC(=O)C=Cc1ccc([N+](=O)[O-])cc1)CCC[C@H](C)CCC[C@H](C)CCCC(C)C [Compound 1g, Phytyl 4-nitrocinnamoate]
Result: 64.1 µM

Ask: # returns recorded IC50 (system: tyrosinase (Agaricus bisporus, UniProt C7FF04)) for COc1ccc(C(=O)OC/C=C(\C)CCC[C@H](C)CCC[C@H](C)CCCC(C)C)cc1 [Compound 1d, Phytyl 4-methoxybenzoate]
Result: 27.9 µM

Ask: # returns recorded IC50 (system: tyrosinase (Agaricus bisporus, UniProt C7FF04)) for C/C(=C\COC(=O)c1ccco1)CCC[C@H](C)CCC[C@H](C)CCCC(C)C [Compound 1h, Phytyl 2-furoate]
Result: > 100 µM

Ask: # returns recorded IC50 (system: tyrosinase (Agaricus bisporus, UniProt C7FF04)) for C/C(=C\COC(=O)c1ccc(Cl)cc1)CCC[C@H](C)CCC[C@H](C)CCCC(C)C [Compound 1e, Phytyl 4-chlorobenzoate]
Result: > 100 µM

Ask: # returns recorded IC50 (system: tyrosinase (Agaricus bisporus, UniProt C7FF04)) for C/C(=C\COC(=O)/C=C/c1ccccc1)CCC[C@@H](C)CCC[C@@H](C)CCCC(C)C (stereo in doubt) [Compound 1f, Phytyl cinnamoate]
Result: 95.7 µM

* * *

Target: tyrosinase (Agaricus bisporus, UniProt C7FF04)
Construct: purchased Sigma-Aldrich
Assay: Tyrosinase inhibition assay
Type: biochemical
Conditions: IC50 against tyrosinase
Measured Endpoint: IC50 (µM)
Write it as a number; the unit µM goes unstated.

Ask: # returns recorded IC50 (system: tyrosinase (Agaricus bisporus, UniProt C7FF04)) for CC(=CCO)CCCC(C)CCCC(C)CCCC(C)C (stereo not shown) [Compound 1, 3,7,11,15-tetramethylhexadec-2-en-1-ol, reference compound]
Result: 77.5

* * *

Recorded hyaluronidase inhibition by entry
Tested on: hyaluronidase
Assay: Hyaluronidase inhibition assay
Assay type: biochemical
Settings: 100 µM
Write it as a number; the unit % goes unstated.

Solved entries (count: 3):
1. C/C(=C\COC(=O)c1ccccc1)CCC[C@@H](C)CCC[C@@H](C)CCCC(C)C (stereo in doubt) [Compound 1a, Phytyl benzoate]: 37.32
2. COc1cccc(C(=O)OC/C=C(\C)CCC[C@H](C)CCC[C@H](C)CCCC(C)C)c1 [Compound 1c, Phytyl 3-methoxybenzoate]: 40.1
3. COc1ccc(C(=O)OC/C=C(\C)CCC[C@H](C)CCC[C@H](C)CCCC(C)C)cc1 [Compound 1d, Phytyl 4-methoxybenzoate]: 22.54

Ask: Requested field: hyaluronidase inhibition. Item: C/C(=C\COC(=O)C=Cc1ccc([N+](=O)[O-])cc1)CCC[C@H](C)CCC[C@H](C)CCCC(C)C [Compound 1g, Phytyl 4-nitrocinnamoate]
Result: 23.06

* * *

Assay: ABTS radical scavenging assay
Conditions: 100 µM
Recorded Percentage of ABTS scavenging by entry
Write it as a number; the unit % goes unstated.

1. C/C(=C\COC(=O)C=Cc1ccc([N+](=O)[O-])cc1)CCC[C@H](C)CCC[C@H](C)CCCC(C)C [Compound 1g, Phytyl 4-nitrocinnamoate]: 28.74

Ask: Requested field: Percentage of ABTS scavenging. Item: C/C(=C\COC(=O)c1cccs1)CCC[C@H](C)CCC[C@H](C)CCCC(C)C [Compound 1i, Phytyl 2-thiophenecarbonoate]
Result: 40.58

* * *

Tested on: hyaluronidase
Test: Hyaluronidase inhibition assay
Format: biochemical
Conditions: 100 µM
Recorded hyaluronidase inhibition by entry
Write it as a number; the unit % goes unstated.

1. COc1ccccc1C(=O)OC/C=C(\C)CCC[C@H](C)CCC[C@H](C)CCCC(C)C [Compound 1b, Phytyl 2-methoxybenzoate]: 34.74
2. C/C(=C\COC(=O)c1ccco1)CCC[C@H](C)CCC[C@H](C)CCCC(C)C [Compound 1h, Phytyl 2-furoate]: 36.02

Next compound, hyaluronidase inhibition to be filled in.
Ask: Requested field: hyaluronidase inhibition. Item: C/C(=C\COC(=O)c1ccc(Cl)cc1)CCC[C@H](C)CCC[C@H](C)CCCC(C)C [Compound 1e, Phytyl 4-chlorobenzoate]
Result: 14.66
